Hey, just so you know, these numbers are from patent US12662479B2.

Biological target: HiBit-BRG1 fusion protein (Homo sapiens, UniProt P51532)
Construct: expressed in transfected cells
Sequence (P51532 whole entry, the tested form may be a part): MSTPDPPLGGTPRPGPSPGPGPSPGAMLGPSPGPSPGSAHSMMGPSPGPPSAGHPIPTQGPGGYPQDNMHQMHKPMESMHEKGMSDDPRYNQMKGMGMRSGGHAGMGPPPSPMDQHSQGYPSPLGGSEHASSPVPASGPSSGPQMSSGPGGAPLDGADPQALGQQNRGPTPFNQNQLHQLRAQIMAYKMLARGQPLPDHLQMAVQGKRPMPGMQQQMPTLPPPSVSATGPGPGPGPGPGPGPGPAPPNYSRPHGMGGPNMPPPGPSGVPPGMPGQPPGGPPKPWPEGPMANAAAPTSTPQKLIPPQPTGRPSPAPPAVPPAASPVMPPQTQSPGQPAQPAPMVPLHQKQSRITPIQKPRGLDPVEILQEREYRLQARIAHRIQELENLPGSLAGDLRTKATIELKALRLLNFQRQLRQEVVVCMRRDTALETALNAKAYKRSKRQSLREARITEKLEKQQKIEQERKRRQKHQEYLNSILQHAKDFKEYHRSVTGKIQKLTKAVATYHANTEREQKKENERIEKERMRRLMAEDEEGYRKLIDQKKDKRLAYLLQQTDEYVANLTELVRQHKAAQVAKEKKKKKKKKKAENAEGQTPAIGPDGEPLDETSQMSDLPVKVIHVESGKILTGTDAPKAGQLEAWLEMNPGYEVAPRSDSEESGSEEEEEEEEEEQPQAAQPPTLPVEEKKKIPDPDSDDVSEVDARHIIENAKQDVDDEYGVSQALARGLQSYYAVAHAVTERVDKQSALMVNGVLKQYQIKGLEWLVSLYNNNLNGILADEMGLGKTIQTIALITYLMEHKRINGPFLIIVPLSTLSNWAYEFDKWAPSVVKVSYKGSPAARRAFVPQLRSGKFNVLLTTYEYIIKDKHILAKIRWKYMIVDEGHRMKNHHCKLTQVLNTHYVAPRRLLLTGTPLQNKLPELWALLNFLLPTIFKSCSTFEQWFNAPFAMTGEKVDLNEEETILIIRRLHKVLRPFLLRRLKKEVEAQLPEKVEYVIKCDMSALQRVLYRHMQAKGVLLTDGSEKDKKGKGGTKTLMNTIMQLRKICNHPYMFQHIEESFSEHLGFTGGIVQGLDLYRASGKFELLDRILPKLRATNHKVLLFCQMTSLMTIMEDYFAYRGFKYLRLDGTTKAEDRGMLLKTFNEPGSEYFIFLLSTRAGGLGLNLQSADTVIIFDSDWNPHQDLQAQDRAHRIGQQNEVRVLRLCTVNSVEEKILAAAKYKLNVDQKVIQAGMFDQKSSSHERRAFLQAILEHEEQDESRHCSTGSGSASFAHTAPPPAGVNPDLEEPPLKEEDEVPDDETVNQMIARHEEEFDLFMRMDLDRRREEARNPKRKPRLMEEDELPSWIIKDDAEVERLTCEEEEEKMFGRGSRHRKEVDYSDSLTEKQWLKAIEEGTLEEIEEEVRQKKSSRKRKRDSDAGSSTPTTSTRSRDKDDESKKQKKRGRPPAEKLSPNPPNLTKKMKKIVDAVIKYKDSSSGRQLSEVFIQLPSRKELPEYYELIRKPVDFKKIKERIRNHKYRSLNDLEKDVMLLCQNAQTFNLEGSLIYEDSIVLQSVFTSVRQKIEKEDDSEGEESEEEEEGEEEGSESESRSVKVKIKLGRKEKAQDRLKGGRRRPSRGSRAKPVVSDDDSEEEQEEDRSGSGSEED
Experiment: HiBiT-BRG1 cell-based degradation assay (Nano-Glo HiBiT Lytic Detection, 24 h)
Details: HeLa cells expressing HiBit-BRG1 and LgBit, read-out: BRG1 HiBit Degradation IC50
Method: Procedure: A stable HeLa cell line expressing HiBiT-BRM was generated. On day 0, 5000 cells were seeded in 40 μL of media into each well of 384-well cell culture plates. […] The plates were shaken for 10 minutes at room temperature and the bioluminescence read using an EnVision plate reader (PerkinElmer). […] The degradation % was calculated using the following formula: % degradation=100%−100%×(LumSample−LumLC)/(LumHC−LumLC). […]
readout name: DC50

Illustrative cases are given below, each with its answer.
| compound | readout name | test result |
| --- | --- | --- |
| CN(CC(=O)NCCOCCOCCNc1ccc2c(c1)C(=O)N(C1CCC(=O)NC1=O)C2=O)c1cc(-c2cccc(-c3csc(NC(=O)CNC(=O)c4ccn(S(C)(=O)=O)c4)n3)c2)ccn1 (centres unmarked) [Compound 93] | DC50 | > 10 µM |
| CC(C)(C(=O)NCCOCCOCCNc1cccc2c1C(=O)N(C1CCC(=O)NC1=O)C2=O)n1ccc(-c2cccc(-c3csc(NC(=O)CNC(=O)c4ccn(S(C)(=O)=O)c4)n3)c2)n1 (centres unmarked) [Compound 6] | DC50 | > 10 µM |
| Cc1ncsc1-c1ccc(CNC(=O)[C@@H]2C[C@@H](O)CN2C(=O)[C@@H](NC(=O)CCCCCCCCCCC(=O)NCc2ccc(COC[C@H](NC(=O)c3ccn(S(C)(=O)=O)c3)C(=O)Nc3nc(-c4ccccc4)cs3)cc2)C(C)(C)C)cc1 [Compound 209] | DC50 | > 10 µM |
| CN(CC(=O)NCCCCCNc1cccc2c1C(=O)N(C1CCC(=O)NC1=O)C2=O)c1cc(-c2cccc(-c3csc(NC(=O)CNC(=O)c4ccn(S(C)(=O)=O)c4)n3)c2)ccn1 (centres unmarked) [Compound 16] | DC50 | > 10 µM |
| CS(=O)(=O)n1ccc(C(=O)NCC(=O)Nc2nc(-c3cccc(-c4ccnc(C5(C(=O)N6CC(CN7CCN(c8ccc9c(c8)C(=O)N(C8CCC(=O)NC8=O)C9=O)CC7)C6)CC5)c4)c3)cs2)c1 (centres unmarked) [Compound 156] | DC50 | 0.1 to 1 µM |
| Cc1ncsc1-c1ccc(CNC(=O)[C@@H]2C[C@@H](O)CN2C(=O)[C@@H](NC(=O)COCCOCC(=O)NCc2cccc(-c3cccc(-c4csc(NC(=O)CNC(=O)c5ccn(S(C)(=O)=O)c5)n4)c3)c2)C(C)(C)C)cc1 [Compound 44] | DC50 | 1 to 10 µM |
| CS(=O)(=O)n1ccc(C(=O)N[C@@H](COCc2ccc(C(=O)NCCCCNc3ccc4c(c3)C(=O)N(C3CCC(=O)NC3=O)C4=O)cc2)C(=O)Nc2nc(-c3ccccc3)cs2)c1 (some centres unmarked) [Compound 242] | DC50 | 0.1 to 1 µM |
| CS(=O)(=O)n1ccc(C(=O)NCC(=O)Nc2nc(-c3cccc(-c4ccnc(C5(C(=O)NCCNc6ccc7c(c6)C(=O)N(C6CCC(=O)NC6=O)C7)CC5)c4)c3)cs2)c1 (centres unmarked) [Compound 168] | DC50 | < 0.1 µM |

Here is another compound to look at.
Task item: Return reported DC50; argument: Cc1ncsc1-c1ccc(CNC(=O)[C@@H]2C[C@@H](O)CN2C(=O)[C@@H](NC(=O)CCCCCCCC(=O)NCc2cccc(-c3cccc(-c4csc(NC(=O)CNC(=O)c5ccn(S(C)(=O)=O)c5)n4)c3)c2)C(C)(C)C)cc1 [Compound 49]
Reply: < 0.1 µM
